Let's look at some binders and their measured pIC50.
Molecular target: T1, soluble human FcRn (human, UniProt P55899 24-297; P61769 21-119, biotinylated (Sulfo-NHS-LC-Biotin) in the ELISA; amine-coupled to CM5 chip in SPR)
T1 construct: also called shFcRn; biotinylated shFcRn
T1 sequence (P55899 24-297 limits assumed, chain 1 of 2): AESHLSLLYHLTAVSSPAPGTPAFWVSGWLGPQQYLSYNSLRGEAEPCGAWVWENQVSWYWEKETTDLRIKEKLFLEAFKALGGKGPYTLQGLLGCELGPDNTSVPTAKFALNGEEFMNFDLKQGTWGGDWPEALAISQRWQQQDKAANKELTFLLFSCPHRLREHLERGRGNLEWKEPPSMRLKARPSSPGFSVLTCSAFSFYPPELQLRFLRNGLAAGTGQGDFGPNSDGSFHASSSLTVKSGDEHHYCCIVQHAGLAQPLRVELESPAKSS
T1 sequence (P61769 21-119 limits assumed, chain 2 of 2): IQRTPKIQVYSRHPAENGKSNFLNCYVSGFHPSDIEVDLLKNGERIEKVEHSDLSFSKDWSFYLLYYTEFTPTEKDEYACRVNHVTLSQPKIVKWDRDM
Test: ELISA, competitor human IgG
Bridge positions count the residues as written; N and C are the ends. Square brackets hold non-standard residues; d marks the D form. Ends that are not written are not given here. Pen = CC(C)(S)[C@H](N)C(=O)O
Conceptually, pIC50 converts a concentration in mol/L into minus its log10.

Sample records with pIC50:
QRFXTGHFGGWYPCNGP (Pen at 4; Sar at 10; disulfide; C-terminal amide) [Peptide No. 238]    6.00
QRF[Pen]TGHFGGIYPCNGP-NH2 (disulfide 4-14; N-terminus assumed; SMILES CC[C@H](C)[C@@H]1NC(=O)CNC(=O)CNC(=O)[C@H](Cc2ccccc2)NC(=O)[C@H](Cc2c[nH]cn2)NC(=O)CNC(=O)[C@H]([C@@H](C)O)NC(=O)[C@@H](NC(=O)[C@H](Cc2ccccc2)NC(=O)[C@H](CCCNC(=N)N)NC(=O)[C@@H](N)CCC(N)=O)C(C)(C)SSC[C@@H](C(=O)N[C@@H](CC(N)=O)C(=O)NCC(=O)N2CCC[C@H]2C(N)=O)NC(=O)[C@@H]2CCCN2C(=O)[C@H](Cc2ccc(O)cc2)NC1=O) [Peptide No. 101]    5.47
QRF[Pen]TGHFGGFYPCNGP-NH2 (disulfide 4-14; N-terminus assumed; SMILES C[C@@H](O)[C@@H]1NC(=O)[C@@H](NC(=O)[C@H](Cc2ccccc2)NC(=O)[C@H](CCCNC(=N)N)NC(=O)[C@@H](N)CCC(N)=O)C(C)(C)SSC[C@@H](C(=O)N[C@@H](CC(N)=O)C(=O)NCC(=O)N2CCC[C@H]2C(N)=O)NC(=O)[C@@H]2CCCN2C(=O)[C@H](Cc2ccc(O)cc2)NC(=O)[C@H](Cc2ccccc2)NC(=O)CNC(=O)CNC(=O)[C@H](Cc2ccccc2)NC(=O)[C@H](Cc2c[nH]cn2)NC(=O)CNC1=O) [Peptide No. 115]    5.39
QRFXTGHFGGLYPCNGP (Pen (L-penicillamine) at 4; disulfide; C-terminal amide) [Peptide No. 32]    5.70

Now for a further binder.
*Q* Please report the recorded pIC50 for RFXTGHFGGWYPC (Pen at 3; disulfide; C-terminal amide) [Peptide No. 237] .
*A* 5.55
